- testedTarget: Prostaglandin E synthase (Homo sapiens, UniProt O14684)
- Sequence (O14684 whole entry): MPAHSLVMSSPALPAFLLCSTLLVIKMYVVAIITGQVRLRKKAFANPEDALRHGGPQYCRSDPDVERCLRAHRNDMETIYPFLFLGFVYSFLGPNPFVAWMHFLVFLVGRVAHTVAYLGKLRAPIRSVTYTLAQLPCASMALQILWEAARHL
- assayOverview: Inhibition of mPGES-1 in human A549 cells assessed as reduction in recombinant human interleukin-1 beta-induced PGE2 production preincubated for 30 mins measured after 18 hrs by ELISA
- Format: cell-based
pIC50: −log10 of the molar value.
outcomeMeasure: pIC50

• Cc1cccc2ccc(N3CC[C@H](C(=O)N[C@H]4CCOC4)C(C)(C)C3)nc12 = 7.64
• Cc1cccc2ccc(N3CC[C@H](C(=O)N[C@H]4CCO[C@H](CO)C4)C(C)(C)C3)nc12 = 8.30
• Cc1cccc2ccc(N3CC[C@H](C(=O)N[C@H]4CCC[C@H](CO)C4)C(C)(C)C3)nc12 = 8.52
• Cc1cccc2ccc(N3CC[C@H](C(=O)N[C@H]4CC[C@@H](CO)CC4)C(C)(C)C3)nc12 = 8.70
• CC1(C)CN(c2ccc3cccc(Cl)c3n2)CC[C@@H]1C(=O)N[C@H]1CC[C@@H](CO)CC1 = 7.52
• CC1(C)CN(c2ccc(C(F)(F)F)cc2)CC[C@@H]1C(=O)N[C@H]1CCC[C@H](CO)C1 = 7.96
• CC1(C)CN(c2ccc(C(F)(F)F)cc2)CC[C@H]1C(=O)N[C@H]1CCC[C@H](CO)C1 = 5.35
• Cc1cccc2ccc(N3CC[C@H](C(=O)N[C@H](C)C(C)C)C(C)(C)C3)nc12 = 7.05
• Cc1cccc2ccc(N3CC[C@H](C(=O)N[C@H]4CCCOC4)C(C)(C)C3)nc12 = 7.14

###

# Cmax values compiled below
- assayOverview: Cmax in rat at 5 mg/kg, po
- Assay type: ADME, organism-based
- Design: dose 5 mg/kg, route oral
- assaySetup: in vivo
outcomeMeasure: Cmax (nM)

• Cc1cccc2ccc(N3CC[C@H](C(=O)N[C@H]4CC[C@@H](CO)CC4)C(C)(C)C3)nc12 = 1450
• Cc1cccc2ccc(N3CC[C@H](C(=O)N[C@H]4CCC[C@H](CO)C4)C(C)(C)C3)nc12 = 1430
• Cc1cccc2ccc(N3CC[C@H](C(=O)N[C@H]4CCO[C@H](CO)C4)C(C)(C)C3)nc12 = 2050

###

- testedTarget: CYP3A4 (Homo sapiens)
- Sequence (P08684 whole entry): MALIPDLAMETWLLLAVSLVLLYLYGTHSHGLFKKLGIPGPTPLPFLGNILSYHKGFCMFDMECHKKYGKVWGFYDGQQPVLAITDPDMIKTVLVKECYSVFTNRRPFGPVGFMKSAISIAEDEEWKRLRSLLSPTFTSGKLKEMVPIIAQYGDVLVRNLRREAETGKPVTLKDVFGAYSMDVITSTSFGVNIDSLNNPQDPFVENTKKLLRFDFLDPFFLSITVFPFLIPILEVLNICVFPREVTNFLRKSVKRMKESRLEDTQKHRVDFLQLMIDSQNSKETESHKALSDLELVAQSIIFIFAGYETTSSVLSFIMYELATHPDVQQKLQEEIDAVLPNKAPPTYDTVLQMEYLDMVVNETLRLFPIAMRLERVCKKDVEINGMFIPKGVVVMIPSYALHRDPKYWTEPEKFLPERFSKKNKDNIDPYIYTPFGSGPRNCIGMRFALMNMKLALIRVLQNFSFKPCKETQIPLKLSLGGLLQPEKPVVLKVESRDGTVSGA
- assayOverview: Inhibition of CYP3A4 in human hepatic microsomes assessed as reduction in probe substrate metabolism at 10 uM
- Assay type: ADME
- assaySetup: liver microsomes
outcomeMeasure: inhibition at 10 µM

• Cc1cccc2ccc(N3CC[C@H](C(=O)N[C@H]4CCC[C@H](CO)C4)C(C)(C)C3)nc12 = 43%
• Cc1cccc2ccc(N3CC[C@H](C(=O)N[C@H]4CCO[C@H](CO)C4)C(C)(C)C3)nc12 = 10%
• Cc1cccc2ccc(N3CC[C@H](C(=O)N[C@H]4CC[C@@H](CO)CC4)C(C)(C)C3)nc12 = 35%
